B1: ESRRA (parent)
chain: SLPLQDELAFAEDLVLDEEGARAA

# Variants of: B1
# testDescription: protein stability index of a GFP-peptide fusion (GPS, HEK-293T) (PSI 1-6); higher = more stable;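 note: lentivirally expressed fusions sorted by FACS into six bins by GFP to DsRed ratio, PSI derived from sequencing read proportions per bin multiplied by bin number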
# conditionSummary: c terminus: a fixed tail appended
// protein stability index lookup, one value per entry
metric: protein stability index

| mutationKey | observedResult |
| --- | --- |
| L4A | 5.45 |
| S1P | 3.54 |
| E7A | 2.41 |
| G20W | 2.67 |
| L2Y | 3.22 |
| F10D | 4.18 |
| D13Q | 3.68 |
| L8C | 5.51 |
| L2T | 3.52 |
| D13H | 2.98 |
| A21F | 3.5 |
| V15L | 3.92 |
| A23Q | 3.19 |
| D17Q | 3.31 |
| A23Y | 2.62 |
| A24W | 2.74 |
| A21Y | 2.63 |
| V15A | 4.6 |
| L16H | 3.6 |
| R22V | 3.69 |
| D17V | 3.19 |
| D6C | 2.42 |
| Q5Y | 2.96 |
| L8W | 5.29 |
| A24S | 2.82 |
| E18K | 4.48 |
| A9G | 4.01 |
| G20M | 2.51 |
| L16F | 3.7 |
| L4D | 4.97 |
| A9P | 5.74 |
| E18R | 4.03 |
| E18V | 3.6 |
| L2E | 5.29 |
| F10Y | 3.54 |
| D6L | 3.26 |
| D6T | 2.89 |
| D6K | 2.81 |
| L16D | 5.66 |
| V15R | 5.42 |
